Tested on: NCI-H1666
testSummary: relative viability (nuclei count vs DMSO), 5 days (fraction); higher = more cells survive
runConditions: first compound 1.265 µM
valueKind: relative viability
Quick one: just the number, no unit, thanks!

Examples with their reported relative viability follow.
O=C(O)c1ccc(-c2c[nH]c3ncc(-c4ccccc4)cc23)cc1C1CCCC1 + CS(=O)(=O)N1CCN(Cc2cc3nc(-c4cccc5[nH]ncc45)nc(N4CCOCC4)c3s2)CC1 [Pictilisib] (partner 1 µM)	0.251
O=C(O)c1ccc(-c2c[nH]c3ncc(-c4ccccc4)cc23)cc1C1CCCC1 + CS(=O)(=O)CCNCc1ccc(-c2ccc3ncnc(Nc4ccc(OCc5cccc(F)c5)c(Cl)c4)c3c2)o1 [Lapatinib] (partner 2 µM)	0.344
O=C(O)c1ccc(-c2c[nH]c3ncc(-c4ccccc4)cc23)cc1C1CCCC1 + N=C(N)NC(=N)NCCc1ccccc1 [Phenformin] (partner 250 µM)	0.363

Now for a further compound.
Req: Give its relative viability value. Item: O=C(O)c1ccc(-c2c[nH]c3ncc(-c4ccccc4)cc23)cc1C1CCCC1 + C[C@@H](Oc1cc(-c2cnn(C3CCNCC3)c2)cnc1N)c1c(Cl)ccc(F)c1Cl [Crizotinib] (partner 1 µM)
Resp: 0.365
